- target: hTRPML2 (Homo sapiens)
- Construct: hTRPML2-YFP
- Sequence (Q8IZK6 whole entry): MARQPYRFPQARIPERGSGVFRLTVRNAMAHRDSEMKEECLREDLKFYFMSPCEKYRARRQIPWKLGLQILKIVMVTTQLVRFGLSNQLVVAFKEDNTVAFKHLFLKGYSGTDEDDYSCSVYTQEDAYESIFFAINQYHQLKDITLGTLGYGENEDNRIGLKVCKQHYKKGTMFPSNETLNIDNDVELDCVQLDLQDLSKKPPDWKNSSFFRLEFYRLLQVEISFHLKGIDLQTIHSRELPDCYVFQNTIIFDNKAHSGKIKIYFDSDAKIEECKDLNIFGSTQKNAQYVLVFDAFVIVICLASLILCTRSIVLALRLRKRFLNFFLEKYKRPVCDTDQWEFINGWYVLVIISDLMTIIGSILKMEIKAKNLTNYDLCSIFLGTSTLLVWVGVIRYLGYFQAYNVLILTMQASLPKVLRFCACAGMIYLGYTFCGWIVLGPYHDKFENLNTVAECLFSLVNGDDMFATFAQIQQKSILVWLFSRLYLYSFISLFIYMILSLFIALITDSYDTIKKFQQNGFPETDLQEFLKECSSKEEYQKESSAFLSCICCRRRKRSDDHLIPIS
- measurement_description: fura-2 calcium imaging dose-response and endolysosomal patch-clamp in HEK293 cells; G425A mutation abrogates effect

# compound, EC50
rows = [
    ("Clc1cccc(Cl)c1C1=NOC2C3CCC(C3)C12 (stereo not shown) [EVP-22, ML2-SA1]", "1240 nM"),
]

###

- target: mTRPML2 (Mus musculus)
- Sequence (Q8K595 whole entry): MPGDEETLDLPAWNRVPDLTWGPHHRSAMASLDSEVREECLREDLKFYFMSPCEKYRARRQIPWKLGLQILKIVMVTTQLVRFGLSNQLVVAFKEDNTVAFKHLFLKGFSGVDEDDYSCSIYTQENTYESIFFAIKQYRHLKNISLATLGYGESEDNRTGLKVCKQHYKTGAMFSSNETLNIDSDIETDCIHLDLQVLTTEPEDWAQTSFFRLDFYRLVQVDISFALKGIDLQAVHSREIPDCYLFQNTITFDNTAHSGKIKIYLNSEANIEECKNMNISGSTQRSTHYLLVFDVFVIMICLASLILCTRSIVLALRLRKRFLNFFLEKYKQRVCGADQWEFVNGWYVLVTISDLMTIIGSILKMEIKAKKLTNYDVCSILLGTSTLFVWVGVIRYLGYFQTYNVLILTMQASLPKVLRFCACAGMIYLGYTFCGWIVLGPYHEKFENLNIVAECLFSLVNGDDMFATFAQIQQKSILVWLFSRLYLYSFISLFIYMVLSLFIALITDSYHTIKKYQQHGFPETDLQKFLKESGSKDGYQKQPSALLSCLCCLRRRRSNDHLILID
- measurement_description: fura-2 calcium imaging dose-response in HEK293 cells; endolysosomal patch-clamp in LPS-stimulated mouse macrophages
observed_property: EC50 (nM)

# compound, target, observed_property, display_unit, quantitative_result
data = [
    ("Clc1cccc(Cl)c1C1=NOC2C3CCC(C3)C12 (stereo not shown)", "mTRPML2 (Mus musculus)", "EC50", "nM", 2380),
]
